# System: HAB1
# experimental_details: Yeast two hybrid of pBD-PYR1 site saturation mutants with pACT-HAB1 on 10 μM ABA, β-galactosidase staining
# Format: cell-based, Arabidopsis
# Parameters: key: x: Mutations in PYR1 that disrupt ABA-induced binding to PYR1 to HAB1
# test_conditions: S. cerevisiae Y190, 10 μM ABA; dead = lack of visible staining in comparison to wild type control
# From the text: To systematically identify mutations in PYR1 that disrupt its binding to HAB1, we utilized a collection of saturating mutations that contain all possible single amino acid substitutions in 24 conserved interface residues involved in binding HAB1, which was previously constructed for the purpose of engineering constitutively active ABA receptor variants (Mosquna et al., 2011). […]
endpoint_label: Mutations in PYR1 that disrupt ABA-induced binding to PYR1 to HAB1

// query Give me measured Mutations in PYR1 that disrupt ABA-induced binding to PYR1 to HAB1, please, for this molecule: L117K: PYR1 mutant (protein, UniProt O49686 1-191, looked up, variant L117K) Abscisic acid receptor PYR1: MPSELTPEERSELKNSIAEFHTYQLDPGSCSSLHAQRIHAPPELVWSIVRRFDKPQTYKHFIKSCSVEQNFEMRVGCTRDVIVISGLPANTSTERLDILDDERRVTGFSIIGGEHRKTNYKSVTTVHRFEKENRIWTVVLESYVVDMPEGNSEDDTRMFADTVVKLNLQKLATVAEAMARNSGDGSGSQVT
// result x

// query Give me measured Mutations in PYR1 that disrupt ABA-induced binding to PYR1 to HAB1, please, for this molecule: M158P: PYR1 mutant (protein, UniProt O49686 1-191, looked up, variant M158P) Abscisic acid receptor PYR1: MPSELTPEERSELKNSIAEFHTYQLDPGSCSSLHAQRIHAPPELVWSIVRRFDKPQTYKHFIKSCSVEQNFEMRVGCTRDVIVISGLPANTSTERLDILDDERRVTGFSIIGGEHRLTNYKSVTTVHRFEKENRIWTVVLESYVVDMPEGNSEDDTRPFADTVVKLNLQKLATVAEAMARNSGDGSGSQVT
// result x
